Matrix metalloproteinase-9 (Homo sapiens, UniProt P14780) measurements of pIC50, listed per entry.
Sequence (P14780 whole entry): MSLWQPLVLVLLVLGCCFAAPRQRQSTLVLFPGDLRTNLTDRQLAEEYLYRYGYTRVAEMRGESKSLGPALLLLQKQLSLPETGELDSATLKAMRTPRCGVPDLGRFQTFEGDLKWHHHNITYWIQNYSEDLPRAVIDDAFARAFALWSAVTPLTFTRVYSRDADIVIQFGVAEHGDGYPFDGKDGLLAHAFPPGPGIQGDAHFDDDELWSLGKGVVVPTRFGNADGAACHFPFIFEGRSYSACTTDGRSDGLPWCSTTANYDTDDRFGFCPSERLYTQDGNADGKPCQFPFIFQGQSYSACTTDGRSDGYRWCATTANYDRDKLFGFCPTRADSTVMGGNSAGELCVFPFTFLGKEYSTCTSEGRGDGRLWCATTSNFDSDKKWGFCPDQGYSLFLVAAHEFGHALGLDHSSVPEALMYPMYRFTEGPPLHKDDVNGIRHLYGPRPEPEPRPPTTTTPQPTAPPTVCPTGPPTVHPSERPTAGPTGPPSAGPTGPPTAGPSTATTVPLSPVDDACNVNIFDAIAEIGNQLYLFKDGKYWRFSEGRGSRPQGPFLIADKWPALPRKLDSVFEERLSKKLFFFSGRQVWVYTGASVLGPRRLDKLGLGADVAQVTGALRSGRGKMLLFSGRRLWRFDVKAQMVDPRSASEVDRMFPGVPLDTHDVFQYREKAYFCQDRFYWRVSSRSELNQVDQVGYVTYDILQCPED
Notebook: values listed as pIC50 are -log10 of the concentration (mol/L).

{"Compound": "O=C(OCCCCOc1ccccc1)c1cccc(=O)[nH]1", "pIC50": 4.03}

Input: Which measured pIC50 value corresponds to COc1cccc(COC(=O)c2cccc(S)n2)c1 ?
Output: 4.03

Input: Entry O=C(OCCCCOc1ccccc1)c1cccc(S)n1 : reported pIC50 = ?
Output: 4.08

Input: Would you kindly share the measured pIC50 for O=C(OCc1ccc(C(F)(F)F)cc1)c1cccc(=O)[nH]1 ?
Output: 4.00

Input: Please look up its pIC50: O=C(OCc1ccc2c(c1)OCO2)c1cccc(=O)[nH]1
Output: 3.94

Input: What value of pIC50 has been recorded for this entry: O=C(OC1CCC1)c1cccc(=O)[nH]1
Output: 4.21

Input: pIC50 for CCCCCOC(=O)c1cccc(=O)[nH]1 ?
Output: 4.18

Input: Item under review: O=C(OC/C=C/c1ccccc1)c1cccc(=O)[nH]1 . Reported pIC50?
Output: 4.14

Input: Recorded pIC50 for O=C(OCc1ccccc1)c1cccc(=O)[nH]1 , please?
Output: 4.16

Input: Requested field: pIC50. Item: CC(C)OC(=O)c1cccc(=O)[nH]1
Output: 4.17
